B1: CDC25B (parent)
chain: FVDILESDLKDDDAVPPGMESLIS

- Variants of: B1
- EXPERIMENT: protein stability index of a GFP-peptide fusion (GPS, HEK-293T) (PSI 1-6); higher = more stable;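 also: lentivirally expressed fusions sorted by FACS into six bins by GFP to DsRed ratio, PSI derived from sequencing read proportions per bin multiplied by bin number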
- RECORDED CONDITIONS: c terminus: a fixed tail appended
Here the recorded protein stability index is given for each entry.
Lab note: write the figure by itself, no unit.

protein stability index measured on `E6M` = 2.38

protein stability index measured on `D8R` = 2.7

protein stability index measured on `D11N` = 2.5

protein stability index measured on `I4D` = 4.54

protein stability index measured on `I4F` = 2.8

protein stability index measured on `K10M` = 3.2

protein stability index measured on `D3K` = 2.65

Data provenance is the supplement of paper PMC10567573.
